Tested on: NCI/ADR-RES ovarian
Experiment: NCI tumour cell line growth inhibition, 48 h
Listing of recorded TGI by entry.

Example entries begin here.
- compound: "C/C(=C\\CSCC(N)C(=O)O)CC/C=C(\\C)CNc1ccccc1 (stereo unspecified)"
  TGI: "> 100 µM"
- compound: "O=C1c2cc3c(cc2CC12Cc1ccc4c(c1C2=O)CCC4)CCC3 (stereo unspecified)"
  TGI: "> 100 µM"
- compound: "COc1ccc2c(c1OC)C(=O)N1C2=Cc2c(cc3c(c2OC)OCO3)CC1N(C)C (stereo unspecified)"
  TGI: "> 100 µM"
- compound: "CCOC(=O)c1c(-c2ccccc2)c(OC)cn1C"
  TGI: "> 10 µM"
- compound: "Nc1ccc(/C=C/c2ccc3cccnc3c2)cc1"
  TGI: "> 100 µM"

TGI reading for CO[P@@]1(=O)O[C@@H](c2ccccc2)[C@H](O)[C@]1(O)c1ccccc1 : > 100 µM
